# ASSAY_COMMENT: soluble on expression in E. coli; label from the status in PepcDB or PDB records
VALUE_TYPE: soluble on expression in E. coli

[
  {
    "RESIDUE_CODES": "MGSDKIHHHHHHMETRKLAVFVDLATTQNYSRSAERMFLSQSTISKYIMALERDWQVQLFERAHRQVTLTRIGQQLLPRAQAILREERQLQQVLAANTAHNAQSLVVQGLPSLAQYQAFHIITAFTKRYPEVKLQFSEASVDRLAHALDHTNVDIVFTRIFGDQPNNYDVLLNETDQFVVLVPKDDPLAQQAEISLSMLAHESILLLKDTIGEDNPLFSAFQKMHTPQMVYDGQRIDLILEMLNQGDGVSVVMARSFDLTGFDNIKAIPLTPTIRSQMAFMKRPDNHAAVVAKFWAFATKYSQSLSD",
    "VALUE_TYPE": "soluble on expression in E. coli",
    "RESULT": "not soluble"
  },
  {
    "RESIDUE_CODES": "MTKPFAPASARNRDPILSVLQRYFADRQHVLEIGAGTGQHAVHFAAAMPWLRWQASDHPDHLPGMRQWLDEAALPNTPPPVALQAVLTPAPGLAPAPPLPPVQAGTPAGYDAIYSANTLHIMGWPQVQALFAGLPAVMAPQAVLVIYGPFNRDGEFTSDSNRDFDAMLRARDAASGIRDAAEVDALAAQVGLQLVDDVDMPANNRCRVWQRALEHHHHHH",
    "VALUE_TYPE": "soluble on expression in E. coli",
    "RESULT": "soluble"
  },
  {
    "RESIDUE_CODES": "MTVAKAIFIKCGNLGTSMMMDMLLDERADREDVEFRVVGTSVKMDPECVEAAVEMALDIAEDFEPDFIVYGGPNPAAPGPSKAREMLADSEYPAVIIGDAPGLKVKDEMEEQGLGYILVKPDAMLGARREFLDPVEMAIYNADLMKVLAATGVFRVVQEAFDELIEKAKEDEISENDLPKLVIDRNTLLEREEFENPYAMVKAMAALEIAENVADVSVEGCFVEQDKERYVPIVASAHEMMRKAAELADEARELEKSNDAVLRTPHAPDGKVLSKRKFMEDPE",
    "VALUE_TYPE": "soluble on expression in E. coli",
    "RESULT": "soluble"
  },
  {
    "RESIDUE_CODES": "MTKKELRAQIRQRNREMLAAENRERWSQSIIERIRRLDIFADAKRIGLYHALPDEPDLTGLLREYVQTKQLFIPRVEGDDIAFYAYTGEADLEAEGAYGIAEPTADAATAILPSSLDLLLVPGVAFDRKGSRMGRGKGYYDRFLPATQVRLIGVTFSYRLLEELPTDPWDRPMDGVITESETLFCLEHHHHHH",
    "VALUE_TYPE": "soluble on expression in E. coli",
    "RESULT": "soluble"
  },
  {
    "RESIDUE_CODES": "ETDETLGEREIRRVLARSGEEGNIDASEVDMIERVFDLDDTVVREVMVPRPDVVSVPADATMSDIRAVVLDEGHTRYPVVDADDSDQIVGFIDVKDVLRAGEEGNENTTAGDIAHEIPVVPETTAINDLLLQFRQDRRQMAAVIDEWGSLEGIATIEDVVEAVVGDLRDEFDVDGREHAIRKQSDGSYDADGGV",
    "VALUE_TYPE": "soluble on expression in E. coli",
    "RESULT": "not soluble"
  }
]

--- query ---
// query Return soluble on expression in E. coli (reported value) for this sequence: MRTLAVISAGLSTPSSTRQIADSISEAVTAAVSARGEALSVSTIELSELIPDLMTAMTTRVHTTKLEEITSALSASDGLVVATPVFKASYTGLFKMFFDILDTDALTGMPTIIAATAGSARHSLVLDYALRPLLSYMRAVVVPTGVFAATEDFGGPEGAEFNKRIARAAGELASLIVEESGNVGLEHHHHHH
// result not soluble
